These data points were gathered from ChEMBL document CHEMBL1128500.

Reported pIC50 values follow for various compounds
# assaySystem: Deoxyhypusine synthase (Rattus norvegicus)
# Sequence (Q6AY53 whole entry): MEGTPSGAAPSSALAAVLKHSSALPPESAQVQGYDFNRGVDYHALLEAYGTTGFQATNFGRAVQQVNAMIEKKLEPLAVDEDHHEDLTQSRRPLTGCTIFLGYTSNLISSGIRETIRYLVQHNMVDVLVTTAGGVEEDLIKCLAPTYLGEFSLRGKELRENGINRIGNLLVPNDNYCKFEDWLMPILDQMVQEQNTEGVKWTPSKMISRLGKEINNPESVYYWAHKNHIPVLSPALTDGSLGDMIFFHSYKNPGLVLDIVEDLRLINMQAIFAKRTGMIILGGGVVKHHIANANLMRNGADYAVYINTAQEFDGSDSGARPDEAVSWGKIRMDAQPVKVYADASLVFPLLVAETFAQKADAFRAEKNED
pIC50: −log10 of the molar value.
parameter: pIC50

>>> print(df.to_string())
                 chemicalstructure                               assaysystem  parameter  valuerelationsign  recordednumber
0              N=C(N)CCCCCCCC(=N)N  Deoxyhypusine synthase (Rattus norvegicus)      pIC50                  =            3.92
1  N=C(N)NCCCCCCCCNCCCCCCCCNC(=N)N  Deoxyhypusine synthase (Rattus norvegicus)      pIC50                  =            5.46
2           N=C(N)NCCCCSCCCNC(=N)N  Deoxyhypusine synthase (Rattus norvegicus)      pIC50                  =            4.32
3            N=C(N)NCCCCCCNCCCCCCN  Deoxyhypusine synthase (Rattus norvegicus)      pIC50                  =            4.13
4            N=C(N)NCCCNCCCNC(=N)N  Deoxyhypusine synthase (Rattus norvegicus)      pIC50                  =            3.74
5           N=C(N)CCCCCCCCCCC(=N)N  Deoxyhypusine synthase (Rattus norvegicus)      pIC50                  <            3.00
6                       NCCCNOCCCN  Deoxyhypusine synthase (Rattus norvegicus)      pIC50                  =            3.41
7                 N=C(N)NCCCCCCCCN  Deoxyhypusine synthase (Rattus norvegicus)      pIC50                  =            6.26

###

# assaySystem: Deoxyhypusine synthase (Rattus norvegicus, UniProt Q6AY53)
# Sequence (Q6AY53 whole entry): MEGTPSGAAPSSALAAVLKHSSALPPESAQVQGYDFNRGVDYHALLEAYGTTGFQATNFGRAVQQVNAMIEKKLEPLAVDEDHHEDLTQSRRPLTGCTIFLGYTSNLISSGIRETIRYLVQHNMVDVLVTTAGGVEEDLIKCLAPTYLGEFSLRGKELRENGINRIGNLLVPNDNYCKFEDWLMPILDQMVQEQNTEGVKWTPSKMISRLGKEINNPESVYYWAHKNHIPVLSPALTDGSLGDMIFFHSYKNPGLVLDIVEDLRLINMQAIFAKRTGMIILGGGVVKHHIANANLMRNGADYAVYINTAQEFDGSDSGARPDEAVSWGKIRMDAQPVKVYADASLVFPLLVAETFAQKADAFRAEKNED
pIC50: −log10 of the molar value.
Reported pIC50 values follow for various molecules
parameter: pIC50

                chemicalstructure  parameter  valuerelationsign  recordednumber
 0                N=C(N)NCCCCCCCN      pIC50                  =            7.52
 1              N=C(N)CCCCCC(=N)N      pIC50                  <            3.00
 2             N=C(N)CCCCCCC(=N)N      pIC50                  <            3.00
 3            NCCCCCCCCNCCCCCCCCN      pIC50                  =            3.94
 4  N=C(N)NCCCCCCCNCCCCCCCNC(=N)N      pIC50                  =            7.10
 5    N=C(N)NCCCCCCNCCCCCCNC(=N)N      pIC50                  =            4.40
 6            NCCCCCNCCCCCN=C(N)N      pIC50                  =            4.00
 7           N=C(N)CCCCCCCCC(=N)N      pIC50                  <            3.00
 8          N=C(N)NCCCOCCCNC(=N)N      pIC50                  =            5.10
 9              CCNCCCCCCCNC(=N)N      pIC50                  =            5.05
10          N=C(N)NCCCCCCCNC(=N)N      pIC50                  =            5.47
11                   N=C(N)NCCCCN      pIC50                  =            3.81
12         N=C(N)SCCCCCCCCSC(=N)N      pIC50                  <            3.00
13            N=C(N)SCCCCCSC(=N)N      pIC50                  <            3.00
14           N=C(N)SCCCCCCSC(=N)N      pIC50                  =            3.11
15                      NCCCSCCCN      pIC50                  =            4.08
